Property: PBM binding z-score; scope: individual sequences
Tested on: PXR:RXRa (NR concentration 270 nM, RXRa partner concentration 90 nM)
Assay: PBM binding z-score (relative to random genomic background probes); higher = stronger binding; sequences stand for … in GC…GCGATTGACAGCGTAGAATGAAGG

{"seq": "AATACAGGGTCACTAGGACAGAGTAGGTACGAAT", "study.target": "PXR:RXRa (NR concentration 270 nM, RXRa partner concentration 90 nM)", "PBM binding z-score": 3.17}
{"seq": "CGTCAAAGTTCAACTAAGGAAACGTAAAGCACGC", "study.target": "PXR:RXRa (NR concentration 270 nM, RXRa partner concentration 90 nM)", "PBM binding z-score": 4.87}
{"seq": "GCTAGTTGGCCAGTAAAAGGTCACACACCGGTCG", "study.target": "PXR:RXRa (NR concentration 270 nM, RXRa partner concentration 90 nM)", "PBM binding z-score": 4.62}
{"seq": "AGAATGAGGTTATACGTAGATCTGGGAAGAAAGT", "study.target": "PXR:RXRa (NR concentration 270 nM, RXRa partner concentration 90 nM)", "PBM binding z-score": 0.994}
{"seq": "CTCGAAAGGTCGGTTGGGGTGAGTATACGGATAA", "study.target": "PXR:RXRa (NR concentration 270 nM, RXRa partner concentration 90 nM)", "PBM binding z-score": 3.44}
{"seq": "ACTATTAGTTGACTTAGTGCAACCGATACGACGC", "study.target": "PXR:RXRa (NR concentration 270 nM, RXRa partner concentration 90 nM)", "PBM binding z-score": 0.283}
{"seq": "TATCCTAGGTCATTGGGCCAGTATAGTACGCATC", "study.target": "PXR:RXRa (NR concentration 270 nM, RXRa partner concentration 90 nM)", "PBM binding z-score": 2.21}
{"seq": "CCAACTAGGTCAAAGGTCAAAGTCGAGCCAACCA", "study.target": "PXR:RXRa (NR concentration 270 nM, RXRa partner concentration 90 nM)", "PBM binding z-score": 7.1}
{"seq": "ACTATTAATTGAGACGAGGGCAACCGATAGGTTG", "study.target": "PXR:RXRa (NR concentration 270 nM, RXRa partner concentration 90 nM)", "PBM binding z-score": 0.755}
{"seq": "TCGAGTCGGTTAGTCGGGGCATTCAGCCAACATA", "study.target": "PXR:RXRa (NR concentration 270 nM, RXRa partner concentration 90 nM)", "PBM binding z-score": -0.0849}
{"seq": "GCAGACAGATGAAACGCAGGTAACTCAGGGTGGC", "study.target": "PXR:RXRa (NR concentration 270 nM, RXRa partner concentration 90 nM)", "PBM binding z-score": -0.681}
{"seq": "AGAACGTGGGCAATGAGTTGATAGCACGGGTGGC", "study.target": "PXR:RXRa (NR concentration 270 nM, RXRa partner concentration 90 nM)", "PBM binding z-score": -0.399}
{"seq": "CTACCAAGGTGAACAAGTTCGTTGATTACTATTC", "study.target": "PXR:RXRa (NR concentration 270 nM, RXRa partner concentration 90 nM)", "PBM binding z-score": 2.81}
{"seq": "CCAGACAGGTGGGAAGGTAACTCAGCCTCGATTA", "study.target": "PXR:RXRa (NR concentration 270 nM, RXRa partner concentration 90 nM)", "PBM binding z-score": -0.359}
{"seq": "ATATGTAGGTTAGCTGTGGTCATTCAGACTAGGC", "study.target": "PXR:RXRa (NR concentration 270 nM, RXRa partner concentration 90 nM)", "PBM binding z-score": 1.3}
{"seq": "TCTTGTAGATCAAAGGTTAAGATAGCCGAAGCCT", "study.target": "PXR:RXRa (NR concentration 270 nM, RXRa partner concentration 90 nM)", "PBM binding z-score": 2.29}
{"seq": "AGAACGAGGGTAATGAGTTGATAGCACGGGTGGC", "study.target": "PXR:RXRa (NR concentration 270 nM, RXRa partner concentration 90 nM)", "PBM binding z-score": 0.134}
{"seq": "TCTCGGTGGACACGAAGGTCAGAGCTTTCCAGAG", "study.target": "PXR:RXRa (NR concentration 270 nM, RXRa partner concentration 90 nM)", "PBM binding z-score": 1.38}
{"seq": "AATACAGAGTCATCGTAGGCCAGAGTACGCACAG", "study.target": "PXR:RXRa (NR concentration 270 nM, RXRa partner concentration 90 nM)", "PBM binding z-score": -0.113}
{"seq": "GCATATAAGTAATACAAGGTGAAAGTCCGATTGT", "study.target": "PXR:RXRa (NR concentration 270 nM, RXRa partner concentration 90 nM)", "PBM binding z-score": 0.436}
{"seq": "CAAACTAGGTCAAAGGTCAAAGGCGAGCCAACCA", "study.target": "PXR:RXRa (NR concentration 270 nM, RXRa partner concentration 90 nM)", "PBM binding z-score": 6.93}
{"seq": "CCTGCTAGGTCATGATCAGCTAATCTACAGTATG", "study.target": "PXR:RXRa (NR concentration 270 nM, RXRa partner concentration 90 nM)", "PBM binding z-score": 1.19}
{"seq": "TGAATGAGGTTATAAGATCAGGGACCGTTGCAAA", "study.target": "PXR:RXRa (NR concentration 270 nM, RXRa partner concentration 90 nM)", "PBM binding z-score": 0.874}
{"seq": "CGTCAAAGTGCAAGGTAACGTAACAGAAAGCAGC", "study.target": "PXR:RXRa (NR concentration 270 nM, RXRa partner concentration 90 nM)", "PBM binding z-score": 0.149}
{"seq": "ATATGTAGCTTAGCTGGGGTCATTCAGACTAGGC", "study.target": "PXR:RXRa (NR concentration 270 nM, RXRa partner concentration 90 nM)", "PBM binding z-score": 5.29}
{"seq": "GCTATTAGTAGAAAGGGCAACCGAATGATTCTCG", "study.target": "PXR:RXRa (NR concentration 270 nM, RXRa partner concentration 90 nM)", "PBM binding z-score": 0.256}
